- System: 349418-098-R-PDC complex spheroid growth
- Test details: Anticancer human tumor 349418-098-R-PDC patient-derived lung adenocarcinoma cell line growth inhibition [AhR]
- Condition notes: second compound 0.316 µM; first compound 0.00316 µM; active compounds read low
Parameter: viability, T/C

Return reported viability, T/C; argument: Cn1ncnc1C1c2n[nH]c(=O)c3cc(F)cc(c23)NC1c1ccc(F)cc1 (stereo unspecified) + Cc1cncc(-c2nc(NCCc3c[nH]c4ccccc34)c3ncn(C(C)C)c3n2)c1
85.7%

Now consider Cn1ncnc1C1c2n[nH]c(=O)c3cc(F)cc(c23)NC1c1ccc(F)cc1 (stereo unspecified) + Cc1ccccc1N=Nc1ccc(NC(=O)c2ccnn2C)c(C)c1 .
113%

Again, but for CC1COCCN1c1cc(-c2ccnn2C)c2ccnc(-c3ccn[nH]3)c2n1 (stereo unspecified) + Cc1ccccc1N=Nc1ccc(NC(=O)c2ccnn2C)c(C)c1
64.4%

// repeat for Nc1ncn(C2CC(O)C(CO)O2)c(=O)n1 (stereo unspecified) + Cc1ccccc1N=Nc1ccc(NC(=O)c2ccnn2C)c(C)c1 and report
77.8%

Next: Cn1ncnc1C1c2n[nH]c(=O)c3cc(F)cc(c23)NC1c1ccc(F)cc1 (stereo unspecified) + CC(CO)NC(=O)c1cc(-c2ccc(Cl)cc2)nn(-c2cnn(C)c2)c1=O
60.6%

Request: CC1COCCN1c1cc(-c2ccnn2C)c2ccnc(-c3ccn[nH]3)c2n1 (stereo unspecified) + Cc1cncc(-c2nc(NCCc3c[nH]c4ccccc34)c3ncn(C(C)C)c3n2)c1
90.9%

====

- System: 349418-098-R-PDC complex spheroid growth
- Test details: Anticancer human tumor 349418-098-R-PDC cell line growth inhibition [AhR];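 further: spheroids also contain HUVEC endothelial cells and human MSC stroma; spheroids exposed to agents for seven days before luminescence viability read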
- Condition notes: second compound 0.1 µM; first compound 0.1 µM; active compounds read low
Parameter: viability, T/C (%)
Quick note: give the figure in %, leave out the unit.

Param readout= viability, T/C; system= 349418-098-R-PDC complex spheroid growth; entry= CC[C@@]1(O)C(=O)OCc2c1cc1n(c2=O)Cc2cc3c(CN(C)C)c(O)ccc3nc2-1 + Cc1ccccc1N=Nc1ccc(NC(=O)c2ccnn2C)c(C)c1 ; returns value.
13

// same read-out, input: O=C(C=Cc1cccc(S(=O)(=O)Nc2ccccc2)c1)NO + Cc1cncc(-c2nc(NCCc3c[nH]c4ccccc34)c3ncn(C(C)C)c3n2)c1
79.1

Likewise for CC1(C)CCC(CN2CCN(c3ccc(C(=O)NS(=O)(=O)c4ccc(NCC5CCOCC5)c([N+](=O)[O-])c4)c(Oc4cnc5[nH]ccc5c4)c3)CC2)=C(c2ccc(Cl)cc2)C1 + Cc1ccccc1N=Nc1ccc(NC(=O)c2ccnn2C)c(C)c1 ?
111

Cool, now COc1ccc([C@@H](O)c2cc(-c3ncnc4cc(N5CCOCC5)ccc34)c(F)cc2Cl)nn1 + CC(CO)NC(=O)c1cc(-c2ccc(Cl)cc2)nn(-c2cnn(C)c2)c1=O
89.9

Param item: COc1ccc([C@@H](O)c2cc(-c3ncnc4cc(N5CCOCC5)ccc34)c(F)cc2Cl)nn1 + Cc1cncc(-c2nc(NCCc3c[nH]c4ccccc34)c3ncn(C(C)C)c3n2)c1
101

Request: CC1COCCN1c1cc(-c2ccnn2C)c2ccnc(-c3ccn[nH]3)c2n1 (configuration not stated) + Cc1ccccc1N=Nc1ccc(NC(=O)c2ccnn2C)c(C)c1
47.9

Here is the next molecule: Cn1ncnc1C1c2n[nH]c(=O)c3cc(F)cc(c23)NC1c1ccc(F)cc1 (configuration not stated) + Cc1ccccc1N=Nc1ccc(NC(=O)c2ccnn2C)c(C)c1
67.4

Now the same for Nc1ncn(C2CC(O)C(CO)O2)c(=O)n1 (configuration not stated) + CC(CO)NC(=O)c1cc(-c2ccc(Cl)cc2)nn(-c2cnn(C)c2)c1=O
55.2

Now this one: COc1ccc([C@@H](O)c2cc(-c3ncnc4cc(N5CCOCC5)ccc34)c(F)cc2Cl)nn1 + Cc1ccccc1N=Nc1ccc(NC(=O)c2ccnn2C)c(C)c1
102

And what about the molecule Cn1ncnc1C1c2n[nH]c(=O)c3cc(F)cc(c23)NC1c1ccc(F)cc1 (configuration not stated) + CC(CO)NC(=O)c1cc(-c2ccc(Cl)cc2)nn(-c2cnn(C)c2)c1=O ?
87.3

Another: Nc1ccn(C2OC(CO)C(O)C2(F)F)c(=O)n1 (configuration not stated) + Cc1cncc(-c2nc(NCCc3c[nH]c4ccccc34)c3ncn(C(C)C)c3n2)c1
5.33

Now try NS(=O)(=O)OCC1CC(n2ccc3c(NC4CCc5ccccc54)ncnc32)CC1O (configuration not stated) + CC(CO)NC(=O)c1cc(-c2ccc(Cl)cc2)nn(-c2cnn(C)c2)c1=O .
65.6

====

- System: 349418-098-R-PDC complex spheroid growth
- Test details: Anticancer human tumor 349418-098-R-PDC cell line growth inhibition [AhR];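 further: spheroids also contain HUVEC endothelial cells and human MSC stroma; spheroids exposed to agents for seven days before luminescence viability read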
- Condition notes: second compound 0.1 µM; first compound 0.01 µM; active compounds read low
- Text: Multicellular complex tumor spheroid response to aryl hydrocarbon receptor antagonists in combination with a variety of drugs and investigational agents in selected tumor cell lines […] Compounds. […] If the clinical Cmax for an agent had not been determined, the highest concentration tested was 10 microM (Table 1). […]
viability, T/C strictly less than 90% = 1.0. Otherwise 0.0.

Quick check: viability, T/C of CC[C@@]1(O)C(=O)OCc2c1cc1n(c2=O)Cc2cc3c(CN(C)C)c(O)ccc3nc2-1 + CC(CO)NC(=O)c1cc(-c2ccc(Cl)cc2)nn(-c2cnn(C)c2)c1=O under 90%?
1.0

Item: CC[C@@]1(O)C(=O)OCc2c1cc1n(c2=O)Cc2cc3c(CN(C)C)c(O)ccc3nc2-1 + Cc1cncc(-c2nc(NCCc3c[nH]c4ccccc34)c3ncn(C(C)C)c3n2)c1
1.0

One more molecule: CC1COCCN1c1cc(-c2ccnn2C)c2ccnc(-c3ccn[nH]3)c2n1 (stereo unspecified) + Cc1ccccc1N=Nc1ccc(NC(=O)c2ccnn2C)c(C)c1
0.0

Please give the result for CC1COCCN1c1cc(-c2ccnn2C)c2ccnc(-c3ccn[nH]3)c2n1 (stereo unspecified) + Cc1cncc(-c2nc(NCCc3c[nH]c4ccccc34)c3ncn(C(C)C)c3n2)c1 too.
0.0

====

- Test system: 349418-098-R-PDC complex spheroid growth
- Test details: Anticancer human tumor 349418-098-R-PDC cell line growth inhibition [AhR];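 further: spheroids also contain HUVEC endothelial cells and human MSC stroma; spheroids exposed to agents for seven days before luminescence viability read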
- Condition notes: second compound 0.1 µM; first compound 0.01 µM; active compounds read low
Task for the reader: assign each of the following molecules its reported viability, T/C.
Your answer is read as %, so omit the unit and give the number.

Test system 349418-098-R-PDC complex spheroid growth; read-out viability, T/C; what value for Cn1ncnc1C1c2n[nH]c(=O)c3cc(F)cc(c23)NC1c1ccc(F)cc1 (stereo unspecified) + Cc1ccccc1N=Nc1ccc(NC(=O)c2ccnn2C)c(C)c1 ?
56.1

Continue with CC1COCCN1c1cc(-c2ccnn2C)c2ccnc(-c3ccn[nH]3)c2n1 (stereo unspecified) + CC(CO)NC(=O)c1cc(-c2ccc(Cl)cc2)nn(-c2cnn(C)c2)c1=O
99.2

Please give the result for Nc1ncn(C2CC(O)C(CO)O2)c(=O)n1 (stereo unspecified) + Cc1ccccc1N=Nc1ccc(NC(=O)c2ccnn2C)c(C)c1 too.
103

Note, next up: CC[C@@]1(O)C(=O)OCc2c1cc1n(c2=O)Cc2cc3c(CN(C)C)c(O)ccc3nc2-1 + Cc1ccccc1N=Nc1ccc(NC(=O)c2ccnn2C)c(C)c1
65.9

Next entry: Nc1ncn(C2CC(O)C(CO)O2)c(=O)n1 (stereo unspecified) + Cc1cncc(-c2nc(NCCc3c[nH]c4ccccc34)c3ncn(C(C)C)c3n2)c1
97.9

Next up: Cn1ncnc1C1c2n[nH]c(=O)c3cc(F)cc(c23)NC1c1ccc(F)cc1 (stereo unspecified) + CC(CO)NC(=O)c1cc(-c2ccc(Cl)cc2)nn(-c2cnn(C)c2)c1=O
96.2

====

What viability, T/C was measured for each of the following?
- Tested on: 349418-098-R-PDC complex spheroid growth
- Test details: Anticancer human tumor 349418-098-R-PDC cell line growth inhibition [AhR];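 further: spheroids also contain HUVEC endothelial cells and human MSC stroma; spheroids exposed to agents for seven days before luminescence viability read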
- Condition notes: second compound 0.1 µM; first compound 0.1 µM; active compounds read low
Write the answer as a number in %, unit excluded.

Query the reported viability, T/C for 349418-098-R-PDC complex spheroid growth; item: Nc1ccccc1NC(=O)c1ccc(CNC(=O)OCc2cccnc2)cc1 + CC(CO)NC(=O)c1cc(-c2ccc(Cl)cc2)nn(-c2cnn(C)c2)c1=O
110

Follow-up item: COc1cc(C2c3cc4c(cc3C(OC3OC5COC(C)OC5C(O)C3O)C3COC(=O)C23)OCO4)cc(OC)c1O (stereo unspecified) + Cc1cncc(-c2nc(NCCc3c[nH]c4ccccc34)c3ncn(C(C)C)c3n2)c1
99

Repeat with COc1cc(C2c3cc4c(cc3C(OC3OC5COC(C)OC5C(O)C3O)C3COC(=O)C23)OCO4)cc(OC)c1O (stereo unspecified) + CC(CO)NC(=O)c1cc(-c2ccc(Cl)cc2)nn(-c2cnn(C)c2)c1=O
98

Proceed to O=C(C=Cc1cccc(S(=O)(=O)Nc2ccccc2)c1)NO + Cc1ccccc1N=Nc1ccc(NC(=O)c2ccnn2C)c(C)c1
119

Same for COc1cccc2c1C(=O)c1c(O)c3c(c(O)c1C2=O)CC(O)(C(=O)CO)CC3OC1CC(N)C(O)C(C)O1 (stereo unspecified) + Cc1ccccc1N=Nc1ccc(NC(=O)c2ccnn2C)c(C)c1
19

Repeat for the following molecule: CC[C@@]1(O)C(=O)OCc2c1cc1n(c2=O)Cc2cc3c(CN(C)C)c(O)ccc3nc2-1 + CC(CO)NC(=O)c1cc(-c2ccc(Cl)cc2)nn(-c2cnn(C)c2)c1=O
16.2
